- Test system: Crandell Rees Feline Kidney (CRFK) cells
- PROCEDURE SUMMARY: Cytotoxicity study, CellTitre-Blue viability assay
- ASSAY SETUP: read-out: Cell Viability CC50; CRFK cells, 48 h, CellTitre-Blue
READOUT: CC50 (µM)
Express your answer in µM, writing the number without its unit.

>  <CHEMICAL STRING>
COc1ccc2c(c1)[C@@H]1C[C@]1(C(=O)N1[C@@H]3CC[C@H]1CN(C)C3)Cn1c-2c(C2CCCCC2)c2ccc(C(=O)NS(=O)(=O)N(C)C)cc21

>  <READOUT>
CC50

>  <DISPLAY UNIT>
µM

>  <RECORDED MEASUREMENT>
27.5

$$$$

Need CC50 of "COc1ccc2c(c1)C=C1Cn3c-2c(C2CCCCC2)c2ccc(cc23)C(=O)NS(=O)(=O)N(C)CCOCCN(C)C1=O" , thanks.
27.1
